Assign growth to each entry below.
Test system: UACC-62 melanoma
Assay: NCI-60 one-dose screen, 48 h (100 = growth as untreated, 0 = no growth, -100 = all killed)
Settings: 10 µM unless noted
The panel holds about 83,000 compounds, 20% with a hit somewhere; the sample as a whole holds those more often.
One number for each entry, in %.

Example results:
• O=C(/C=C/c1cccc(Cl)c1)c1ccc(O)c(CN2CCN(c3cc4c(cc3F)c(=O)c(C(=O)O)cn4C3CC3)CC2)c1 = 34.9
• O=C(O)c1ccc(N=CC(=O)c2ccc(-c3ccccc3)cc2)cc1 = 93.5

Next item in the queue.
Ask | # returns recorded growth (system: UACC-62 melanoma) for CNc1ccc(-c2cc(=O)oc3ccc(Cl)cc23)cc1
Reply | 31.7
